# Test system: LOX IMVI melanoma
# test description: NCI-60 one-dose screen, 48 h (100 = growth as untreated, 0 = no growth, -100 = all killed)
# conditions: 10 µM
Compounds without any hit were thinned out: in the full panel of roughly 83,000, 20% have a hit.
Field: growth. Provide a value for each of the compounds that follow.
Lab book: enter the figure in %, no units written.

Prompt line: // returns reported growth for input COc1ccc(C(=O)CSc2nnc(-c3c[nH]c4ccccc34)n2-c2ccccc2)cc1
Response line: 43.5

Prompt line: Next: O=c1[nH]c2ccc(Cl)cc2cc1CSc1ccc(Nc2nccc(-c3ccc4ccccc4c3)n2)cc1
Response line: 60.4

Prompt line: Next: CC1(C)CC[C@]23CC[C@]4(C)[C@H](CC[C@@H]5[C@@]6(C)CC[C@H](N)C(C)(C)[C@@H]6CC[C@]54C)[C@H]2[C@H]1OC3=O
Response line: -98.9

Prompt line: Next: CN1CCc2c(sc3ncnc(N/N=C/c4cn(-c5ccccc5)nc4-c4ccc(Br)cc4)c23)C1
Response line: 28.4

Prompt line: Next: O=C(Cc1ccc2c(c1)CN(C1CCC(=O)NC1=O)C2=O)NCc1cccc2ccccc12 (stereo not drawn)
Response line: -48.3

Prompt line: Next: CCN1CCN(c2ccc(NC(=O)Nc3ccc(-c4cc(C(=O)NC(C)C)c5ncccc5n4)cc3)cc2C(F)(F)F)CC1
Response line: -100

Prompt line: Next: CCOC(=O)C(Cc1ccccc1)N1C(=O)/C(=C/N2N=C(c3ccc(OC)cc3)CC2c2ccc3ccccc3c2)SC1=S (stereo not drawn)
Response line: -100

Prompt line: Next: CC1CC(c2ccc(N(C)C)cc2)=NN1c1nc(O)c(C2=c3cc(Br)ccc3=NC2=O)s1 (stereo not drawn)
Response line: -46.1

* * *

# Test system: KM12 colon
# test description: NCI-60 one-dose screen, 48 h
# conditions: 10 µM
This is part of a sample that, as a whole, favours compounds with a hit. Of some 83,000 tested, about 20% had one in any assay. Active and inactive are the calls of the source. Rule for the calls: active = growth percent below 10; inactive = the rest.
The reply should name one outcome from active, inactive

Prompt line: Per the assay record, what outcome was assigned to O=C1Nc2cc(Cl)ccc2/C1=C/c1ccc(OCc2ccc(Br)cc2F)cc1 ?
Response line: active

Prompt line: Next: O=C1NC(=NC23CC4CC(CC(C4)C2)C3)N/C1=C\c1ccc2ncsc2c1
Response line: active

Prompt line: Next: CC(C)C1=C[C@@]23CC[C@@H]4[C@](C)(CCC[C@]4(C)C(=O)NCc4ccccc4)[C@H]2C[C@@H]1[C@H]1C(=O)OC(=O)[C@H]13
Response line: inactive

Prompt line: Next: C[C@H]1[C@H](C)CC[C@]2(COC(=O)CCC(=O)NCC#CCN3CCNCC3)CC[C@]3(C)C(=CC[C@@H]4[C@@]5(C)CCCNC(C)(C)[C@@H]5CC[C@]43C)[C@H]12
Response line: inactive

Prompt line: Next: COc1ccc2[nH]cc(/C=N/Nc3ccc(Br)cn3)c2c1
Response line: active

Prompt line: Next: O=c1cc(-c2ccccc2)oc2cc(OCCCCNCc3ccccc3)cc(O)c12
Response line: inactive

Prompt line: Next: COc1cc(/C=C/C(=O)c2cc(OC)c(OC)c(OC)c2)ccc1Oc1nc(Nc2ccc(F)cc2)nc(N(C)C)n1
Response line: active

Prompt line: Next: CCOC(=O)C1=C(N)N(c2ccccc2)C2=C(C(=O)CC(C)(C)C2)C1c1ccccc1OC (stereo unspecified)
Response line: inactive

Prompt line: Next: Cc1ccc(CNC(=O)Cc2ccc3c(c2)CN(C2CCC(=O)NC2=O)C3=O)cc1 (stereo unspecified)
Response line: active

Prompt line: Next: CCN1CCN(Cc2ccc(NC(=O)c3cccc(-n4cc(-c5ccc(NC(C)=O)nc5)nn4)c3)cc2C(F)(F)F)CC1
Response line: inactive

Prompt line: Next: C=C1CCC2C3(C)COC(c4c(F)cccc4F)OC3CCC2(C)C1C/C=C1/C(=O)OCC1O (stereo unspecified)
Response line: active

Prompt line: Next: Cc1ccc(C(=O)NCCCNc2nc(Nc3ccc(N4CCN(C)CC4)cc3)nc3ccsc23)cc1
Response line: inactive

Prompt line: Next: CN1C(=O)N(C)C2SC(N/N=C/c3ccccc3F)=NC21 (stereo unspecified)
Response line: inactive

Prompt line: Next: CN(CCF)c1ccc(/C=C/C(=O)c2ccc(N)cc2O)cc1
Response line: inactive

Prompt line: Next: N#Cc1ccc(-c2nn(-c3ccc(C(=O)O)cc3)cc2CNc2cc(Cl)cc(C(F)(F)F)c2)cc1
Response line: active

Prompt line: Next: COc1ccc(OC)c(-c2cc(-c3c[nH]c4ccccc34)nc(N)c2C#N)c1
Response line: active

Prompt line: Next: O=C(Nc1ccccc1)Nc1nc2ccccc2s1
Response line: inactive

Prompt line: Next: O=C(CN1CCN(c2ncnc3c2cnn3-c2ccccc2)CC1)Nc1nncs1
Response line: active

Prompt line: Next: CCN1CCN(Cc2ccc(C(=O)Nc3cccc(-c4cn(-c5ccc6oc(=O)ccc6c5)nn4)c3)cc2C(F)(F)F)CC1
Response line: active

Prompt line: Next: Brc1ccc(/C=N/Nc2ncnc3sc4c(c23)CCN(Cc2ccccc2)C4)cc1
Response line: inactive

Prompt line: Next: CN1C/C(=C\c2ccc(O)cc2O)c2[o+]c3cc(O)ccc3cc2C1
Response line: inactive

Prompt line: Next: CCOc1ccc2ncc(C#Cc3cncc(C(=O)Nc4ccc(CN5CCN(C)CC5)c(C(F)(F)F)c4)c3)n2n1
Response line: active

Prompt line: Next: Cc1ccc(/C=C/C(=O)c2ccc(NC(=O)CSc3nnc(-c4c[nH]c5ccccc45)n3-c3ccccc3)cc2)c(C)c1
Response line: inactive

Prompt line: Next: Cc1noc2c(Cc3ccccc3)nn(CC(=O)N/N=C/c3ccc(Cl)cc3)c(=O)c12
Response line: inactive

Prompt line: Next: CC(C)(C)Nc1nc2cc(Cl)c(Cl)cc2nc1S(C)(=O)=O
Response line: inactive

Prompt line: Next: CC(=O)c1cc(C(=O)N2c3ccccc3Sc3ccccc32)n2ccc(C)cc12
Response line: inactive

* * *

# Tested on: RXF 393 renal
# test description: NCI-60 one-dose screen, 48 h
# conditions: 10 µM
Compounds without any hit were thinned out: in the full panel of roughly 83,000, 20% have a hit. The source made the active and inactive calls. The calls were made as follows: active = growth percent below 10; inactive = the rest.
The reply should name one outcome from active, inactive

Prompt line: Per the assay record, what outcome was assigned to COc1ccc(N(C)c2cc(C#N)nc3ccccc23)cc1/C=C/C(=O)NO ?
Response line: active

Prompt line: Next: CC(=C(c1ccc(OCCN2CCCCCC2)cc1)c1ccc(OCCN2CCCCCC2)cc1)c1ccc(Cl)cc1
Response line: active

Prompt line: Next: CC(=O)Nc1nc(-c2ccc(N3CCN(C)CC3)c(NS(=O)(=O)c3cccc4c(N(C)C)cccc34)c2)cs1
Response line: inactive

Prompt line: Next: C=C(c1ccc(OC)c(N)c1)c1cc(C)nc2ccccc12
Response line: inactive

Prompt line: Next: COc1ccc(CCN2C(=O)/C(=C/c3csc(C#N)n3)SC2=S)cc1OC
Response line: active

Prompt line: Next: COc1ccc2c3nc4cc(C)c(C)cc4nc3n(CCN(C)C)c2c1
Response line: active

Prompt line: Next: CC(=C(c1ccc(OCCN2CCCCC2)cc1)c1ccc(OCCN2CCCCC2)cc1)c1ccccc1
Response line: active

Prompt line: Next: O=c1oc2ccc(-c3ccc(F)cc3F)cc2c(=O)n1-c1ccc(Cl)c(C(F)(F)F)c1
Response line: active

Prompt line: Next: CCN1CCN(c2ccc(NC(=O)Nc3ccc(-c4cc(C(=O)NC(C)C)c5ncccc5n4)cc3)cc2C(F)(F)F)CC1
Response line: active

Prompt line: Next: C/C(=C\CC/C=C(\C)CC/C=C(\C)CC[C@@H](O)C(C)(C)O)CC/C=C(\C)CC[C@@H](O)C(C)(C)O
Response line: inactive

Prompt line: Next: CC1(C)CC[C@]2(C(=O)N3CCOCC3)CC[C@]3(C)C(=CC[C@@H]4[C@@]5(C)CC[C@H](NCO)C(C)(C)[C@@H]5CC[C@]43C)[C@H]2C1
Response line: active

Prompt line: Next: Clc1ccc(/C=N/Nc2ncnc3sc4c(c23)CCN(Cc2ccccc2)C4)cc1
Response line: inactive

Prompt line: Next: O=C(N=Nc1c(O)[nH]c2ccc(Br)cc12)c1ccc2nc(-c3ccccc3)[nH]c2c1
Response line: active

Prompt line: Next: O=C(O)CCCCCCCCCCN1C(=O)/C(=C/c2cnc(-c3ccccc3)s2)SC1=S
Response line: inactive

Prompt line: Next: O=C(CS(=O)(=O)c1oc(-c2ccc(Cl)cc2)nc1S(=O)(=O)c1ccc(Cl)cc1)N1CCOCC1
Response line: active

Prompt line: Next: CN1CCc2c(sc3ncnc(N/N=C/c4cn(-c5ccccc5)nc4-c4ccc(Br)cc4)c23)C1
Response line: inactive

Prompt line: Next: O=C(Cn1cc(CSc2nnc3oc4ccccc4n23)nn1)Nc1cccc(Cl)c1
Response line: inactive

Prompt line: Next: CS(=O)(=O)Nc1ccc(-c2ccc3c(c2)ncn3-c2ccc(NC(=O)Nc3ccc(Br)cc3)cc2)cc1
Response line: active

Prompt line: Next: Cc1ccc(NCC(=O)Nn2c(COc3ccccc3)nc3ccccc3c2=O)cc1
Response line: inactive

Prompt line: Next: O=C(Nc1nc2ccc([N+](=O)[O-])cc2s1)Nc1ccccc1I
Response line: active

Prompt line: Next: C=C(C)[C@@H]1CC[C@]2(C)[C@H](CC=C3[C@@H]4CC(C)(C)CC[C@]4(C(=O)N4CCOCC4)CC[C@]32C)[C@@]1(C)CCCN
Response line: active

Prompt line: Next: COC[C@@H](CC(C)C)N=C1NC(=O)/C(=C/c2ccc3ncsc3c2)N1
Response line: active

Prompt line: Next: COc1cc(/C=C/C(=O)c2cc(OC)c(OC)c(OC)c2)ccc1Oc1nc(Nc2ccc(F)cc2)nc(N(C)C)n1
Response line: active

Prompt line: Next: Cc1ccc(NC(=O)c2ccc(-n3c(=O)[nH]c4ccccc4c3=O)cc2)cc1
Response line: inactive

Prompt line: Next: Cc1ccc(S(=O)(=O)c2nc(-c3ccccc3)oc2S(=O)(=O)CC(=O)N2CCCC2)cc1
Response line: active

Prompt line: Next: O=C1Nc2cc(Cl)ccc2/C1=C/c1cccc(OCc2ccccc2)c1
Response line: active

Prompt line: Next: COc1ccc2[nH]c(=O)c(CSc3cccc(N)c3)cc2c1
Response line: inactive

Prompt line: Next: CN1CCN(Cc2ccc(C(=O)Nc3cccc(Nc4ccc5cc(O)ccc5n4)c3)cc2C(F)(F)F)CC1
Response line: active

Prompt line: Next: COc1ccc([C@H]2C(C(=O)c3ccc(Cl)cc3)C3(N[C@@H]2c2ccccc2)C(=O)Nc2ccc(Cl)cc23)cc1 (some centres undefined)
Response line: active
